# Tested System: Estrogen receptor (Homo sapiens) (UniProt P03372)
# Assay Procedure: Binding affinity to human ERalpha assessed as relative binding affinity incubated under vibration for 1 min followed by 2 hrs incubation under dark condition by fluorescence polarization assay relative to estradiol
# Recorded Conditions: time 121.0 min
Result Type: RBA (%)

Previously resolved entries follow.
| Molecule | RBA / % |
| --- | --- |
| N#C[Se]CCCCCC(=O)Nc1ccc(C2=C(c3ccc(O)cc3)C3CC(S(=O)(=O)Oc4cccc(O)c4)C2O3)cc1 (configuration not stated) | 14.2 |
| N#C[Se]CCCCCC(=O)Nc1ccc(C2=C(c3ccc(O)cc3)C3CC(S(=O)(=O)Oc4ccc(Cl)cc4)C2O3)cc1 (configuration not stated) | 0.6 |
| N#C[Se]CCCCCC(=O)Nc1ccc(C2=C(c3ccc(O)cc3)C3CC(S(=O)(=O)N(CC(F)(F)F)c4ccccc4F)C2O3)cc1 (configuration not stated) | 8.57 |

[I] CCN(c1ccccc1F)S(=O)(=O)C1CC2OC1C(c1ccc(NC(=O)CCCCC[Se]C#N)cc1)=C2c1ccc(O)cc1 (configuration not stated)
[II] N#C[Se]CCCCCC(=O)Nc1ccc(C2=C(c3ccc(O)cc3)C3CC(S(=O)(=O)Oc4ccccc4O)C2O3)cc1 (configuration not stated)
[III] N#C[Se]CCCCCC(=O)Nc1ccc(C2=C(c3ccc(O)cc3)C3CC(S(=O)(=O)Oc4ccc(F)cc4)C2O3)cc1 (configuration not stated)
[IV] N#C[Se]CCCCCCCC(=O)Nc1ccc(C2=C(c3ccc(O)cc3)C3CC(S(=O)(=O)Oc4ccccc4)C2O3)cc1 (configuration not stated)
Sequence the entries by RBA, beginning with the highest number. Please list the labels according to the requested order.
II, I, III, IV

###

Entries annotated with measured IC50 at 72 h
# Assay Procedure: Cytotoxicity against human MCF-10A cells assessed as inhibition of cell proliferation incubated for 72 hrs by CCK8 assay
# Type: toxicity, cell-based
Reply with just the number (in µM).

| Compound | IC50 at 72 h [µM] |
| --- | --- |
| CCN(c1ccc(F)cc1)S(=O)(=O)C1CC2OC1C(c1ccc(NC(=O)CCCCC[Se]C#N)cc1)=C2c1ccc(O)cc1 (stereo not drawn) | 18.1 |
| CCN(c1cccc(OC)c1)S(=O)(=O)C1CC2OC1C(c1ccc(NC(=O)CCCCC[Se]C#N)cc1)=C2c1ccc(O)cc1 (stereo not drawn) | 91.5 |
| N#C[Se]CCCCCC(=O)Nc1ccc(C2=C(c3ccc(O)cc3)C3CC(S(=O)(=O)N(CC(F)(F)F)c4cccc(Cl)c4)C2O3)cc1 (stereo not drawn) | 49.1 |
| Cc1ccc(OS(=O)(=O)C2CC3OC2C(c2ccc(NC(=O)CCCCC[Se]C#N)cc2)=C3c2ccc(O)cc2)cc1 (stereo not drawn) | 41.1 |
| N#C[Se]CCCCCC(=O)Nc1ccc(C2=C(c3ccc(O)cc3)C3CC(S(=O)(=O)N(CC(F)(F)F)c4ccccc4)C2O3)cc1 (stereo not drawn) | 57.6 |

Recorded result, N#C[Se]CCCCCC(=O)Nc1ccc(C2=C(c3ccc(O)cc3)C3CC(S(=O)(=O)Oc4ccc(C(F)(F)F)cc4)C2O3)cc1 (stereo not drawn) , IC50 at 72 h: 16.2

Recorded result, N#C[Se]CCCCCC(=O)Nc1ccc(C2=C(c3ccc(O)cc3)C3CC(S(=O)(=O)Oc4ccccc4F)C2O3)cc1 (stereo not drawn) , IC50 at 72 h: 17.6

Recorded result, N#C[Se]CCCCCC(=O)Nc1ccc(C2=C(c3ccc(O)cc3)C3CC(S(=O)(=O)N(CC(F)(F)F)c4ccc(Cl)cc4)C2O3)cc1 (stereo not drawn) , IC50 at 72 h: 32.4

###

# Tested System: Tubulin (Homo sapiens) (UniProt P68371+Q9H4B7+P0DPH7+P68366+Q13509+Q71U36+P04350+Q3ZCM7+P07437+P68363+Q9BQE3+Q6PEY2+Q13885+Q9BVA1+Q9BUF5)
# Assay Procedure: Inhibition of tubulin polymerization (unknown origin) at 30 uM incubated for 60 mins by microplate reader analysis
# Assay type: protein-complex assay
Activity calls are given as the source filed them. The calls are words filed in the database; no cut-off is given here.
Give your call using only these classes: active, inactive

Would you please look over these solved cases?
| Molecule | Assigned Class |
| --- | --- |
| COc1ccc(N(CC(F)(F)F)S(=O)(=O)C2CC3OC2C(c2ccc(O)cc2)=C3c2ccc(O)cc2)cc1 (stereo unspecified) | inactive |
| N#C[Se]CCCCCC(=O)Nc1ccc(C2=C(c3ccc(O)cc3)C3CC(S(=O)(=O)Oc4ccccc4F)C2O3)cc1 (stereo unspecified) | active |
| O=S(=O)(Oc1ccccc1)C1CC2OC1C(c1ccc(O)cc1)=C2c1ccc(O)cc1 (stereo unspecified) | inactive |

For N#C[Se]CCCCCC(=O)Nc1ccc(C2=C(c3ccc(O)cc3)C3CC(S(=O)(=O)N(CC(F)(F)F)c4ccccc4F)C2O3)cc1 (stereo unspecified) , what call appears in the results of this test?
active

For N#C[Se]CCCCCC(=O)Nc1ccccc1 , what call appears in the results of this test?
active

For CCN(c1ccccc1F)S(=O)(=O)C1CC2OC1C(c1ccc(NC(=O)CCCCC[Se]C#N)cc1)=C2c1ccc(O)cc1 (stereo unspecified) , what call appears in the results of this test?
active

###

# Species on record: Homo sapiens
# Assay Procedure: Selectivity ratio of relative binding affinity for human ERalpha to relative binding affinity to human ERbeta
Result Type: Selectivity ratio

| Compound | Selectivity ratio |
| --- | --- |
| N#C[Se]CCCC(=O)Nc1ccc(C2=C(c3ccc(O)cc3)C3CC(S(=O)(=O)Oc4ccccc4)C2O3)cc1 (stereo not given) | 0.62 |
| N#C[Se]CCCCCC(=O)Nc1ccc(C2=C(c3ccc(O)cc3)C3CC(S(=O)(=O)N(CC(F)(F)F)c4cccc(Cl)c4)C2O3)cc1 (stereo not given) | 73.3 |
| N#C[Se]CCCCCC(=O)Nc1ccc(C2=C(c3ccc(O)cc3)C3CC(S(=O)(=O)Oc4ccccc4)C2O3)cc1 (stereo not given) | 6.05 |
| CCN(c1cccc(F)c1)S(=O)(=O)C1CC2OC1C(c1ccc(NC(=O)CCCCC[Se]C#N)cc1)=C2c1ccc(O)cc1 (stereo not given) | 26.3 |
| COc1ccc(OS(=O)(=O)C2CC3OC2C(c2ccc(NC(=O)CCCCC[Se]C#N)cc2)=C3c2ccc(O)cc2)cc1 (stereo not given) | 19.4 |
| CCN(c1ccccc1F)S(=O)(=O)C1CC2OC1C(c1ccc(NC(=O)CCCCC[Se]C#N)cc1)=C2c1ccc(O)cc1 (stereo not given) | 15.8 |
| N#C[Se]CCCCCC(=O)Nc1ccc(C2=C(c3ccc(O)cc3)C3CC(S(=O)(=O)Oc4ccc(C(F)(F)F)cc4)C2O3)cc1 (stereo not given) | 2.75 |
| CCN(c1ccc(OC)cc1)S(=O)(=O)C1CC2OC1C(c1ccc(NC(=O)CCC[Se]C#N)cc1)=C2c1ccc(O)cc1 (stereo not given) | 6.29 |
| CCN(c1ccccc1Cl)S(=O)(=O)C1CC2OC1C(c1ccc(NC(=O)CCCCC[Se]C#N)cc1)=C2c1ccc(O)cc1 (stereo not given) | 29.9 |
| Cc1ccccc1OS(=O)(=O)C1CC2OC1C(c1ccc(NC(=O)CCCCC[Se]C#N)cc1)=C2c1ccc(O)cc1 (stereo not given) | 4.53 |

[1] COc1ccc(N(CC(F)(F)F)S(=O)(=O)C2CC3OC2C(c2ccc(NC(=O)CCCCC[Se]C#N)cc2)=C3c2ccc(O)cc2)cc1 (stereo not given)
[2] Cc1cccc(OS(=O)(=O)C2CC3OC2C(c2ccc(NC(=O)CCCCC[Se]C#N)cc2)=C3c2ccc(O)cc2)c1 (stereo not given)
Recorded Selectivity ratio values differ for 1 and 2 ; which one is higher? // respond with label for picked entry
1
(1: 46.2, 2: 0.77)

###

# Tested System: UniProt:P03372
# Sequence (whole entry): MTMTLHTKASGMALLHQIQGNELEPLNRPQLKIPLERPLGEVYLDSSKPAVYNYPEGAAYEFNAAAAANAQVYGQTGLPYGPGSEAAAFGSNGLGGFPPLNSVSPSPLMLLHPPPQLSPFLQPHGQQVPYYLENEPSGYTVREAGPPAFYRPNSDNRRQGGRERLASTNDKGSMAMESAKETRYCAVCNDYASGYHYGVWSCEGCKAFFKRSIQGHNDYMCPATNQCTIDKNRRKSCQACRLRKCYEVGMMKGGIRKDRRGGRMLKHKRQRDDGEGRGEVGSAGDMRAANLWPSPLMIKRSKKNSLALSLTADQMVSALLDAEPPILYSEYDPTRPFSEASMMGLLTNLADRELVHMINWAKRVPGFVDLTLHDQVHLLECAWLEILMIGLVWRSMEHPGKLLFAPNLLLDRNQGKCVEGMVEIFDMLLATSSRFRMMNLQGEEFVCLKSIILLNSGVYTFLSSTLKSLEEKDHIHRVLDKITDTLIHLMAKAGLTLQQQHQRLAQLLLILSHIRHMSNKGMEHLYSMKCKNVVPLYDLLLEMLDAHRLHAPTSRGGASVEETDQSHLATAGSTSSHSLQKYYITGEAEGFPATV
# Assay Procedure: Binding affinity to human ERalpha assessed as relative binding affinity incubated under vibration for 1 min followed by 2 hrs incubation under dark condition by fluorescence polarization assay relative to estradiol
# Recorded Conditions: time 121.0 min
Result Type: RBA (%)

| Compound | Result Type | Observed Measurement |
| --- | --- | --- |
| N#C[Se]CCCCCC(=O)Nc1ccc(C2=C(c3ccc(O)cc3)C3CC(S(=O)(=O)Oc4cccc(Br)c4)C2O3)cc1 (configuration not stated) | RBA | 0.59 |
| N#C[Se]CCCCCC(=O)Nc1ccc(C2=C(c3ccc(O)cc3)C3CC(S(=O)(=O)Oc4cccc(Cl)c4)C2O3)cc1 (configuration not stated) | RBA | 4.08 |
| N#C[Se]CCCCCC(=O)Nc1ccc(C2=C(c3ccc(O)cc3)C3CC(S(=O)(=O)Oc4cccc(F)c4)C2O3)cc1 (configuration not stated) | RBA | 3.31 |
| CCN(c1ccccc1Cl)S(=O)(=O)C1CC2OC1C(c1ccc(NC(=O)CCCCC[Se]C#N)cc1)=C2c1ccc(O)cc1 (configuration not stated) | RBA | 2.69 |

[I] N#C[Se]CCCCCC(=O)Nc1ccc(C2=C(c3ccc(O)cc3)C3CC(S(=O)(=O)Oc4ccc5ccccc5c4)C2O3)cc1 (configuration not stated)
[II] COc1ccc(OS(=O)(=O)C2CC3OC2C(c2ccc(NC(=O)CCCCC[Se]C#N)cc2)=C3c2ccc(O)cc2)cc1 (configuration not stated)
I would appreciate it if you could say which entry, I or II , has the lower RBA value. // respond with label for picked entry
II
